Test system: HEL^RE cells (Ruxolitinib-resistant HEL)
Experiment: CellTiter-Lumi luminescence proliferation of Ruxolitinib-resistant HEL^RE cells, 48 h
Type: cell-based, human
Conditions: Homo sapiens; HEL^RE cells, 48 h, mean (95% confidence interval)
Readout label: pIC50
Quick note: pIC50 means taking -log10 of the concentration in moles per liter.

Need pIC50 of N#CC[C@H](C1CCCC1)n1cc(-c2ncnc3[nH]ccc23)cn1 , thanks.
4.35

====

Measured activity at 0.1 µM, listed per entry.
System: HEL^RE cells (Ruxolitinib-resistant HEL)
Experiment: CellTiter-Lumi luminescence proliferation of Ruxolitinib-resistant HEL^RE cells, 48 h
Assay type: cell-based, human
Conditions: Homo sapiens; HEL^RE cells, 0.1 μM, 48 h, vs DMSO control; read-out: average proliferation rate of HEL^RE cells
Text: HELs (Human erythroleukemia cell lines) and Ruxolitinib-resistant HEL cells were both cultured in a RPMI medium (Gibco) containing 20% heat-inactivated fetal bovine serum (Gibco) and 1% penicillin/streptomycin. […] A calculation formula of the cell proliferation rate was: cell proliferation rate=(Luminescence value of the group added with the drug-average Luminescence value of the blank wells)/(Luminescence value of the DMSO control group-average Luminescence value of the blank wells)×100%. […]
Give the value; after it, write the unit.

# count of solved cases: 3
Substance smiles	Measured target	Result
Cc1ccc2c(Nc3cccc(Cl)c3F)nccc2c1NC(=O)c1csc2c(N)ncnc12	HEL^RE cells (Ruxolitinib-resistant HEL)	104%
COc1cc2ncnc(Oc3cccc(NC(=O)Nc4cc(C(C)(C)C(F)(F)F)on4)c3)c2cc1OC	HEL^RE cells (Ruxolitinib-resistant HEL)	4.26%
N#CC[C@H](C1CCCC1)n1cc(-c2ncnc3[nH]ccc23)cn1	HEL^RE cells (Ruxolitinib-resistant HEL)	105%

Need activity at 0.1 µM of CNS(=O)(=O)Nc1nccc(Cc2c(C)c3ccc(Oc4ncccn4)cc3oc2=O)c1F , thanks.
48.1%

Need activity at 0.1 µM of C[C@@H](NC(=O)c1ncnc(N)c1Cl)c1ncc(C(=O)Nc2cc(C(F)(F)F)c(Cl)cn2)s1 , thanks.
103%

Need activity at 0.1 µM of Cn1c(Nc2ccc(C(F)(F)F)cc2)nc2cc(Oc3ccnc(-c4ncc(C(F)(F)F)[nH]4)c3)ccc21 , thanks.
92%

====

Measured activity at 0.3 µM, listed per entry.
Tested on: HEL^RE cells (Ruxolitinib-resistant HEL)
Test: CellTiter-Lumi luminescence proliferation of Ruxolitinib-resistant HEL^RE cells, 48 h
Type: cell-based, human
Settings: Homo sapiens; HEL^RE cells, 0.3 μM, 48 h, vs DMSO control; read-out: average proliferation rate of HEL^RE cells
# unit: % | format: bare number

# count of solved cases: 3
Substance smiles	Readout label	Unit text	Result number
C[C@@H](NC(=O)c1ncnc(N)c1Cl)c1ncc(C(=O)Nc2cc(C(F)(F)F)c(Cl)cn2)s1	activity at 0.3 µM	%	75.1
CNS(=O)(=O)Nc1nccc(Cc2c(C)c3ccc(Oc4ncccn4)cc3oc2=O)c1F	activity at 0.3 µM	%	41.4
Cn1c(Nc2ccc(C(F)(F)F)cc2)nc2cc(Oc3ccnc(-c4ncc(C(F)(F)F)[nH]4)c3)ccc21	activity at 0.3 µM	%	67.2

Need activity at 0.3 µM of Cc1ccc2c(Nc3cccc(Cl)c3F)nccc2c1NC(=O)c1csc2c(N)ncnc12 , thanks.
92.4

Need activity at 0.3 µM of N#CC[C@H](C1CCCC1)n1cc(-c2ncnc3[nH]ccc23)cn1 , thanks.
105

Need activity at 0.3 µM of COc1cc2ncnc(Oc3cccc(NC(=O)Nc4cc(C(C)(C)C(F)(F)F)on4)c3)c2cc1OC , thanks.
2.77
